# targetOfAssay: monomeric SARS-CoV-2 RBD with Flag peptide and 8xHis-tag (RBD-FH) (SARS-CoV-2, WA1 (Wuhan-like), UniProt P0DTC2)
# experimentSummary: SPR
# experimentalContext: both partners purified
valueKind: koff (s⁻¹)

>>> quantitativereadout("1.29 Nb (VHH) VHH: QVQLVESGGGSVQAGGSLRLSCAASGYTINTDAVAWFRQAPGKGDERVAVIYTGSGNTNYADSVKGRFTISQDNAKNTVYLQMNSLKPEDTALYYCASGYYGASGYDFNNWGQGTQVTVSS")
0.00614
>>> quantitativereadout("1.10 Nb (VHH) VHH: QVQLVESGGGSVQAGGSLRLSCAASGYTYSTCRKGWYRQAPGKERELVASITADGATYYLDSVKGRLTISQDNAKNTVYLQMNSLKPEDTAVYYCAASVKDFTCTFNSWGQGTQVTVSS")
0.00137
>>> quantitativereadout("1.26 Nb (VHH) VHH: QVQLVESGGGLVQAGGSLRLSCAATGYTWSSVCMGWFRQAPGKEREGVAGIPSGRNRPYYADSVKGRFTISQDNAKNAVFLLMNSLKPEDTAIYYCAPCSAPHDPEYNYWGQGTQVTVSS")
0.000624
>>> quantitativereadout("2.20 Nb (VHH) VHH: QVQLVESGGGSVQAGGSLRLSCAASGYTYNNYYMGWFRQAPGKEREGVAAINSDGLDTYVADSVKGRFTISRDNAKDTVHLQMNSLKPEDTAIYSCATGRTVYYSGYDFRLSVDDYWGQGTQVTVSS")
0.00101
